Target: Bromodomain-containing protein 4 (Homo sapiens, UniProt O60885)
Assay: Inhibition of TEV cleavage site-fused-GST tagged BRD4(BD1) (unknown origin) using SGRGK(Ac)CGK(Ac)-GLGK(Ac)GGAK(Ac)RHRKVG-peptide after 3 hrs by HTRF assay
Label scheme for IC50: LOW: < 500 nM; MID: ≥ 500 nM and < 1000 nM; HIGH: ≥ 1000 nM

The examples below pair each entry with its known result.
structure.smiles	measurement.target	group
CCn1cnc2c1c(=O)[nH]c(=O)n2Cc1ccc(CNS(=O)(=O)c2cc(-c3ccno3)ccc2C)cc1	Bromodomain-containing protein 4 (Homo sapiens, UniProt O60885)	HIGH
CCn1cnc2c1c(=O)[nH]c(=O)n2Cc1ccc(CNS(=O)(=O)c2ccc(OCc3ccccc3)cc2)cc1	Bromodomain-containing protein 4 (Homo sapiens, UniProt O60885)	MID

Request: Using the reported IC50, which band applies to CCn1cnc2c1c(=O)[nH]c(=O)n2Cc1ccc(CNS(=O)(=O)c2ccc(C)cc2)cc1 ?
Result: MID

Request: Categorize the following entry: CCn1cnc2c1c(=O)[nH]c(=O)n2Cc1ccc(CNS(=O)(=O)CCc2ccccc2)cc1
Result: HIGH

Request: Which of the defined bands does the recorded IC50 of CCn1cnc2c1c(=O)[nH]c(=O)n2Cc1ccc(CNS(=O)(=O)CCN2CCOCC2)cc1 sit within?
Result: HIGH

Request: Quick check: band for CCn1cnc2c1c(=O)[nH]c(=O)n2Cc1ccc(CN)cc1
Result: HIGH

----------
Target: Bromodomain-containing protein 4 (Homo sapiens, UniProt O60885)
Test: Inhibition of TEV cleavage site-fused-GST tagged BRD4(BD1) (unknown origin) using SGRGK(Ac)CGK(Ac)-GLGK(Ac)GGAK(Ac)RHRKVG-peptide after 3 hrs by HTRF assay
Measured pIC50 values are reported for all entries that follow.
Hey, just a heads up that pIC50 is the negative log base 10 of the concentration in molar.

Solved cases below.
structure.smiles	measurement.target	pIC50
CCn1cnc2c1c(=O)[nH]c(=O)n2Cc1ccc(CNS(=O)(=O)c2cccc(-c3ccccc3)c2)cc1	Bromodomain-containing protein 4 (Homo sapiens, UniProt O60885)	6.30
CCn1cnc2c1c(=O)[nH]c(=O)n2Cc1ccc(CNS(=O)(=O)c2ccc(Oc3ccccc3)cc2)cc1	Bromodomain-containing protein 4 (Homo sapiens, UniProt O60885)	6.50
CCn1cnc2c1c(=O)[nH]c(=O)n2Cc1ccc(CNS(=O)(=O)c2ccc3c(c2)CCC(=O)N3)cc1	Bromodomain-containing protein 4 (Homo sapiens, UniProt O60885)	6.40
CCn1cnc2c1c(=O)[nH]c(=O)n2Cc1ccc(CNS(=O)(=O)c2ccc3oncc3c2)cc1	Bromodomain-containing protein 4 (Homo sapiens, UniProt O60885)	5.70
CCn1cnc2c1c(=O)[nH]c(=O)n2Cc1ccc(CNS(=O)(=O)c2ccc(-c3ccccc3)cc2)cc1	Bromodomain-containing protein 4 (Homo sapiens, UniProt O60885)	6.40
CCn1cnc2c1c(=O)[nH]c(=O)n2Cc1ccc(CNS(=O)(=O)c2ccc(OC)cc2)cc1	Bromodomain-containing protein 4 (Homo sapiens, UniProt O60885)	6.10
CCn1cnc2c1c(=O)[nH]c(=O)n2Cc1ccc(CNS(=O)(=O)c2cnn(-c3ccccc3)c2)cc1	Bromodomain-containing protein 4 (Homo sapiens, UniProt O60885)	6.30

Request: Can you look up pIC50 on Bromodomain-containing protein 4 (Homo sapiens, UniProt O60885) for CCn1cnc2c1c(=O)[nH]c(=O)n2Cc1ccc(CNS(=O)(=O)c2ccc3c(c2)n(C)c(=O)n3C)cc1 ?
Result: 6.10
